Test system: Staphylococcus aureus
Experiment: Antibacterial activity against methicillin-resistant Staphylococcus aureus ATCC 33591 incubated for 18 to 24 hrs in presence of 0.5 mg/ml of trypsin by broth microdilution method
Type: functional
Conditions: time 18-24 hrs
This section presents molecules with their documented MIC values.
measure: MIC (µM)

structure_smiles	relation_sign	numeric_result
CCCCCCCCCCCC(=O)N[C@H](CCCNC(=N)N)C(=O)N[C@H](CCCNC(=N)N)C(=O)N[C@@H](Cc1c[nH]c2ccccc12)C(=O)O	=	32
CCCCCCCCCCCC(=O)N[C@@H](CCCNC(=N)N)C(=O)N[C@H](CCCNC(=N)N)C(=O)N[C@H](Cc1c[nH]c2ccccc12)C(=O)O	=	128
CCCCCCCCCCCC(=O)N[C@@H](CCCNC(=N)N)C(=O)N[C@@H](CCCNC(=N)N)C(=O)N[C@@H](Cc1c[nH]c2ccccc12)C(=O)O	>	128
CCCCCCCCCCCC(=O)N[C@@H](CCCNC(=N)N)C(=O)N[C@@H](CCCNC(=N)N)C(=O)N[C@H](Cc1c[nH]c2ccccc12)C(=O)O	>	128
CCCCCCCCCCCC(=O)N[C@@H](CCCNC(=N)N)C(=O)N[C@H](CCCNC(=N)N)C(=O)N[C@@H](Cc1c[nH]c2ccccc12)C(=O)O	=	16
CCCCCCCCCCCC(=O)N[C@H](CCCNC(=N)N)C(=O)N[C@H](CCCNC(=N)N)C(=O)N[C@H](Cc1c[nH]c2ccccc12)C(=O)O	=	4
CCCCCCCCCCCC(=O)N[C@H](CCCNC(=N)N)C(=O)N[C@@H](CCCNC(=N)N)C(=O)N[C@@H](Cc1c[nH]c2ccccc12)C(=O)O	=	64
CCCCCCCCCCCC(=O)N[C@H](CCCNC(=N)N)C(=O)N[C@@H](CCCNC(=N)N)C(=O)N[C@H](Cc1c[nH]c2ccccc12)C(=O)O	=	8

----------
Assay: Stability in mouse serum assessed as compound degradation measured upto 96 hrs by RP-HPLC analysis
Format: ADME, cell-free
Conditions: read-out: Drug degradation
This section presents molecules with their documented metabolised at 96 h values.

structure_smiles	metabolised at 96 h
CCCCCCCCCCCC(=O)N[C@@H](CCCNC(=N)N)C(=O)N[C@@H](CCCNC(=N)N)C(=O)N[C@@H](Cc1c[nH]c2ccccc12)C(=O)O	~100%
CCCCCCCCCCCC(=O)N[C@H](CCCNC(=N)N)C(=O)N[C@H](CCCNC(=N)N)C(=O)N[C@H](Cc1c[nH]c2ccccc12)C(=O)O	~20%

----------
Test system: Staphylococcus aureus
Experiment: Antibacterial activity against methicillin-resistant Staphylococcus aureus ATCC 33591 incubated for 18 to 24 hrs by broth microdilution method
Format: functional
Details: time 18-24 hrs

compound	MIC / µM
CCCCCCCCCCCC(=O)N[C@H](CCCNC(=N)N)C(=O)N[C@H](CCCNC(=N)N)C(=O)N[C@H](Cc1c[nH]c2ccccc12)C(=O)O	4
O=C(O)c1cn(C2CC2)c2cc(N3CCNCC3)c(F)cc2c1=O [CIPROFLOXACIN]	256
C[C@@H](O)[C@H]1C(=O)N2C(C(=O)O)=C(SCCNC=N)C[C@H]12 [IMIPENEM ANHYDROUS]	32
CCCCCCCCCCCC(=O)N[C@@H](CCCNC(=N)N)C(=O)N[C@@H](CCCNC(=N)N)C(=O)N[C@H](Cc1c[nH]c2ccccc12)C(=O)O	4
CCCCCCCCCCCC(=O)N[C@H](CCCNC(=N)N)C(=O)N[C@@H](CCCNC(=N)N)C(=O)N[C@@H](Cc1c[nH]c2ccccc12)C(=O)O	4
CNC(C)[C@@H]1CC[C@@H](N)[C@@H](O[C@H]2[C@H](O)[C@@H](O[C@H]3OC[C@](C)(O)[C@H](NC)[C@H]3O)[C@H](N)C[C@@H]2N)O1.CN[C@@H]1[C@@H](O)[C@@H](O[C@@H]2[C@@H](O)[C@H](O[C@H]3O[C@H](C(C)N)CC[C@H]3N)[C@@H](N)C[C@H]2N)OC[C@]1(C)O.CN[C@@H]1[C@@H](O)[C@@H](O[C@@H]2[C@@H](O)[C@H](O[C@H]3O[C@H](CN)CC[C@H]3N)[C@@H](N)C[C@H]2N)OC[C@]1(C)O (some centres not stated)	128
CCCCCCCCCCCC(=O)N[C@H](CCCNC(=N)N)C(=O)N[C@@H](CCCNC(=N)N)C(=O)N[C@H](Cc1c[nH]c2ccccc12)C(=O)O	4
